Taken from the RNAGym collection of RNA variant scans (doi:10.1126/science.aae0568).

B1: tRNA (parent)
chain: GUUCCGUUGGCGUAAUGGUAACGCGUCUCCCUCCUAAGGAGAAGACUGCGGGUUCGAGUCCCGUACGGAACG

Variants of: B1
Assay: yeast fitness relative to wild type (ratio to wild type); higher = fitter; tRNA-Arg(CCU), competitive growth, 37 C, YPD
This sample holds only a part of the variants without activity.
ASSAY METRIC: yeast fitness

Reference set (3 entries):
C22G C31U C62U A65U    ≤ 0.5
C22G A36G A37C C46A C49G    ≤ 0.5
G10C A14C C61A G67A A69C    ≤ 0.5

The recorded yeast fitness for C4G U16A A43C is ≤ 0.5

# yeast fitness of C11U C34G A37U = ≤ 0.5

response.value for U7A A15U G63A G67A (field: yeast fitness) = ≤ 0.5

yeast fitness recorded for this variant, A42G A45G U47C G51C , is ≤ 0.5

Form field yeast fitness, entry C4U U16A A65C : 0.612

Noted for U3C U7A C27A : its yeast fitness reads ≤ 0.5

For A40C A45C the variant record lists yeast fitness as 0.616

Value of measured yeast fitness for the entry U16C U28C A37C G56A U59C : ≤ 0.5

For this variant ( G12C C31G C33G G48A ), measured yeast fitness is 0.642
